# maps each entry to its melting point

# example entries with known answers
{"columns": ["molecule", "melting point"],
 "data": [
  ["O=C1OC(O)(c2ccccc2)C2(Cl)CCCCC12 (stereo not given)", "89 to 92 °C"],
  ["Nc1cc(=O)n2cc(Cl)c(C(c3c(F)ccc(F)c3F)S(=O)(=O)CCC(F)(F)F)cc2n1 (stereo not given)", "247 °C"]
]}

# input Please list melting point recorded for the molecule CC(=O)Oc1c(C)c(C)c(O)c(C(C)=NOCCOc2ccc(CC3SC(=O)NC3=O)cc2)c1C (stereo not given)
# output 60 to 75 °C

# input // Input: O=C(O)CCc1conc1-c1ccc(Cl)cc1 . Output its melting point only.
# output 149 to 150 °C

# input Tell me its melting point given O=S1(=O)NCN(C2CC2)c2c1ccc(F)c2F as the entry.
# output 160 to 162 °C

# input Return the recorded melting point value; entry: O=C(O)c1cccc(-c2ccc(F)c3cc(Cc4ccc(F)c(F)c4)sc23)c1
# output 224 to 225 °C

# input Indicate its recorded melting point; the molecule in question is COc1ccc(CNc2c(C)c(C)c3oc(C)c(-c4ccc(F)cc4)c3c2C)cc1
# output 100 to 102 °C

# input Complete the entry with melting point for CCS(=O)(=O)Nc1cccc(C=C2c3ccccc3CCc3ccccc32)c1
# output 180 °C

# input Return reported melting point. Input molecule: O=C1c2ccccc2C(=O)N1Cc1nc(C2CC2)no1
# output 115 °C

# input Read off the recorded melting point for O=C(O)c1ncn(Cc2ccc(Cl)c(Cl)c2)c1C(=O)O
# output 258 °C

# input # return recorded melting point for entry O=C(O)c1cnc2cc3c(cc2c1O)OCO3
# output > 290 °C

# input Recall and state the measured melting point for CCOC(=O)CC[C@H](NC(=O)c1ccc(C#Cc2cnc3nc(NC(=O)C(C)(C)C)nc(O)c3c2)cc1)C(=O)OCC .
# output > 250 °C

Recorded values, source a melting point compilation (Tetko et al.; mined from patent text by program, amines drawn as free bases though some values may be those of a salt).
